All figures here come from patent US20250282799A1.

TARGET_OR_TEST_SYSTEM: KRAS (G12V)/CRAF (Homo sapiens (Human), UniProt P01116, G12V)
Sequence (P01116-2 other isoform, or with tags, fused parts or gaps G12V): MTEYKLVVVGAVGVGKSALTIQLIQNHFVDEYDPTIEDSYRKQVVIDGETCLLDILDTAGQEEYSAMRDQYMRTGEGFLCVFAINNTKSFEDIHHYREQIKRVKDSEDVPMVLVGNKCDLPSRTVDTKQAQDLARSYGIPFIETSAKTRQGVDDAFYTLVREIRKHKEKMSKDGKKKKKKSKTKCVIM
EXPERIMENT_DESCRIPTION: TR-FRET biochemical KRAS:CRAF protein:protein interaction assay, KRAS (G12V)
TEST_PARAMETERS: GMPPNP loaded Biotin-KRAS (G12V), FLAG CRAF RBD; read-out: TR-Fret_PPI KRAS (G12V)/CRAF IC50
MEASUREMENT_LABEL: IC50 (nM)
Numbers only, in nM.

[2H]C([2H])(Oc1nc(N2CCOC[C@H]3[C@H](F)[C@H]32)c2cnc(-c3cc(N)cc4cc(F)c(F)c(C#C)c34)c(F)c2n1)[C@@]12CCCN1C[C@H](F)C2 = 89.7

List reported IC50 for each of these molecules:
1. [2H]C([2H])(Oc1nc(N2CCCC[C@H]3[C@@H](F)[C@H]32)c2cnc(-c3cc(N)cc4cc(F)c(F)c(C#C)c34)c(F)c2n1)[C@@]12CCCN1C[C@H](F)C2
2. [2H]C([2H])(Oc1nc(N2CCOC[C@H]3[C@@H](Cl)[C@H]32)c2cnc(-c3cc(N)cc4ccc(F)c(C#C)c34)c(F)c2n1)[C@@]12CCCN1C[C@H](F)C2

1: 2830; 2: 3000

* * *

Assignment: determine reported pIC50 for the given molecules.
System: KRAS G12V dependent lung adenocarcinoma cell line, NCI-H441
EXPERIMENT_DESCRIPTION: Cellular pERK (Thr202/Tyr204) FRET/HTRF assay
Type: cell-based
TEST_PARAMETERS: Homo sapiens, NCI-H441, pERK HTRF, NCI-H441 cells (KRAS G12V)
pIC50: −log10 of the molar value.

Sample records with pIC50:
[2H]C([2H])(Oc1nc(N2CCCO[C@H]3C[C@H]32)c2cnc(-c3ccc(F)c4sc(N)c(C#N)c34)c(F)c2n1)[C@@]12CCCN1C[C@H](F)C2 = 6.30 to 7.30
[2H]C([2H])([2H])Oc1c(C#N)ccc2cc(N)cc(-c3ncc4c(N5CCCC[C@H]6[C@H](F)[C@H]65)nc(OC([2H])([2H])[C@@]56CCCN5C[C@H](F)C6)nc4c3F)c12 = > 7.30
[2H]C1([2H])CCO[C@H]2C[C@H]2N1c1nc(OC([2H])([2H])[C@@]23CCCN2C[C@H](F)C3)nc2c(F)c(-c3cc(N)cc4cc(F)c(F)c(C#C)c34)ncc12 = > 7.30
[2H]C1([2H])CCO[C@@H]2C[C@@H]2N1c1nc(OC([2H])([2H])[C@@]23CCCN2C[C@H](F)C3)nc2c(F)c(-c3cc(N)cc4cc(F)c(F)c(C#C)c34)ncc12 = 6.30 to 7.30

Read the next record carefully.
Requested field: pIC50. Item: [2H]C([2H])(Oc1nc(N2CCCCC[C@@H]3[C@@H](F)[C@@H]32)c2cnc(-c3cc(N)cc4cc(F)c(F)c(C#C)c34)c(F)c2n1)[C@@]12CCCN1C[C@H](F)C2
5.00 to 6.30

* * *

Assignment: determine reported IC50 for the given molecules.
Tested on: KRAS G12V dependent lung adenocarcinoma cell line, NCI-H441
EXPERIMENT_DESCRIPTION: Cellular pERK (Thr202/Tyr204) FRET/HTRF assay
Format: cell-based
TEST_PARAMETERS: Homo sapiens, NCI-H441, cellular pERK (Thr202/Tyr204) HTRF, NCI-H441 cells

C#Cc1c(F)ccc2cccc(-c3ncc4c(N5CCOC[C@H]6[C@H](F)[C@H]65)nc(OC[C@@]56CCCN5CC(=C(F)F)C6)nc4c3F)c12 [Example 102] = < 50 nM
[2H]C([2H])(Oc1nc(N2CCOC[C@H]3[C@H](F)[C@H]32)c2cnc(-c3nc(N)cc4ccc(F)c(C#C)c34)c(F)c2n1)[C@@]12CCCN1C[C@H](F)C2 [Example 154] = < 50 nM
[2H]C([2H])([2H])Oc1c(F)cc(F)c2cc(N)cc(-c3ncc4c(N5CCOC[C@H]6[C@H](F)[C@H]65)nc(OC[C@@]56CCCN5CC(=C)C6)nc4c3F)c12 [Example 192] = < 50 nM
[2H]C([2H])(Oc1nc(N2CCOC[C@H]3[C@H](F)[C@H]32)c2cnc(-c3cc(N)cc4ccc(F)c(C#C)c34)c(F)c2n1)[C@@]12CCCN1[C@@H](C)[C@H](F)C2 [Example 334] = < 50 nM

List reported IC50 for each of these molecules:
1. [2H]C([2H])(Oc1nc(N2CCOC[C@@H]3[C@@H](F)[C@@H]32)c2cc(F)c(-c3cc(N)cc(C4CC4)c3C(F)(F)F)c(F)c2n1)[C@@]12CCCN1C[C@H](F)C2 [Example 164]
2. C#Cc1c(F)ccc2cc(N)cc(-c3ncc4c(N5CCOC[C@H]6[C@H](F)[C@H]65)nc(OC[C@]56C[C@]7(C[C@@H]7F)CN5CCC65CC5)nc4c3F)c12 (single isomer, unassigned) [Example 232]
3. C#Cc1c(F)ccc2cc(N)cc(-c3ncc4c(N5CCOC[C@H]6[C@H](F)[C@H]65)nc(OC[C@]56C/C(=C\F)CN5CCC65CC5)nc4c3F)c12 [Example 362]
4. [2H]C([2H])(F)Oc1c(F)ccc2cc(N)cc(-c3ncc4c(N5CCCC[C@H]6[C@H](F)[C@H]65)nc(OC[C@]56C/C(=C\F)CN5CCC65CC5)nc4c3F)c12 [Example 383]
5. Cc1c(F)c(N)cc(-c2ncc3c(N4CCCC[C@H]5[C@H](F)[C@H]54)nc(OC[C@]45CC(=C(F)F)CN4CCC54CC4)nc3c2F)c1C(F)(F)F [Example 412]
6. C#Cc1c(F)ccc2cccc(-c3ncc4c(N5CCOC[C@@H]6[C@@H](F)[C@@H]65)nc(OC[C@@]56CCCN5CC(=C(F)F)C6)nc4c3F)c12 [Example 103]

500 to 10000 nM
< 50 nM
< 50 nM
< 50 nM
500 to 10000 nM
500 to 10000 nM

List reported IC50 for each of these molecules:
1. C=C1CN2CCC3(CC3)[C@@]2(COc2nc(N3CCOC[C@H]4[C@H](F)[C@H]43)c3cnc(-c4cc(N)c(F)c(C)c4C(F)(F)F)c(F)c3n2)C1 [Example 226]
2. [2H]C([2H])(Oc1nc(N2CCOC[C@H]3[C@H](F)[C@H]32)c2cnc(-c3cc(N)cc(C4CC4)c3C(F)(F)F)c(F)c2n1)[C@@]12CCCN1C[C@H](F)C2 [Example 165]

1: < 50 nM; 2: 50 to 500 nM
